# Test system: HCT-116 colon
# assayName: NCI-60 one-dose screen, 48 h (100 = growth as untreated, 0 = no growth, -100 = all killed)
# conditionSummary: 10 µM unless noted
Compounds without any hit were thinned out: in the full panel of roughly 83,000, 20% have a hit.
Lab note: anything with growth below 20% is marked 1.0; values at 20% or higher are marked 0.0.

Confirm or reject: growth of CCO/C=N/C1=C(C#N)C(c2ccc(OC)cc2)c2sc3c(C)cccc3c2O1 (stereo not drawn) lies strictly below 20%
1.0

How about this molecule: O=C1CCCC2=C1C(c1c[nH]c3ccc(Br)cc13)Cc1cc(Br)ccc1N2 (stereo not drawn)
1.0

What do you get for `CC/C(=C/c1cc(OC)ccc1O)c1ccc2cc(OC)ccc2[o+]1` ?
0.0

Would you mind doing `O=C(CNc1nc(-c2cccc([N+](=O)[O-])c2)cs1)Nc1cccc(Cl)c1` as well?
0.0

Also `NC(N)=Nc1ccc(Oc2cccc(Nc3cccc(C(F)(F)F)c3)c2)cn1` , if possible.
1.0

Also `C=CCn1c(SCC(=O)Nc2ccc(C(=O)/C=C/c3ccc(Br)cc3)cc2)nnc1-c1c[nH]c2ccccc12` ?
1.0

// repeat for `NC(N)=Nc1ccc(Nc2cccc(Nc3ccc(Cl)c(C(F)(F)F)c3)c2)cn1` and report
1.0

What do you get for `CC(C)(O)c1cncc(-c2ccc3ncnc(NCc4ccccc4)c3c2)c1` ?
0.0

And `Cc1cc2ncc(-c3cc4ccccc4c(N4CCN(C)CC4)n3)nc2cc1C` ?
1.0

Check `O=C1CCCc2nc(Nc3ccc(S(=O)(=O)Nc4ccc([N+](=O)[O-])cc4)cc3)ncc21` too.
0.0

Same question, `CC[C@H](CO)Nc1ccc2ncc(C#Cc3cncc(C(=O)Nc4ccc(CN5CCN(C)CC5)c(C(F)(F)F)c4)c3)n2n1` this time
1.0

Please do the same for `COc1cc(/C=C/C(=O)c2ccc(NC(=O)CSc3nnc(-c4ccc(-c5nc6ccc(Cl)cc6[nH]5)cc4)o3)cc2)cc(OC)c1OC` as well.
0.0

Another molecule to check: `C[C@@H](Nc1c(C#N)cnc2ccc(-c3cnc(Cl)c(NS(C)(=O)=O)c3)cc12)c1ccccc1`
1.0

Next molecule up: `COc1ccc(/C=C(\C#N)C(=O)N2c3ccccc3Sc3ccc(SC)cc32)cc1F`
0.0

Try this molecule too: `O=C(Nc1nc2ccc([N+](=O)[O-])cc2s1)Nc1ccccc1Br`
1.0

What about COC(=O)c1[nH]nc2c1C1(C(=O)N(C)c3ccccc31)C(C#N)=C(N)O2 (stereo not drawn) ?
0.0

Check `N#Cc1c(NC(=O)c2cccc(C(F)(F)F)c2F)sc2c1CCC(=O)C2` too.
1.0

Same for CC(=O)C1=C(C)NC(NN)=NC1c1cccc(Cl)c1 (stereo not drawn)
0.0

// repeat for `CC(=O)Nc1cccc(Nc2nc(N[C@@H](C)c3ccccc3)c3ccccc3n2)c1` and report
1.0

Also need `NC(N)=Nc1ccc(Oc2cccc(Nc3ccc(Cl)c(C(F)(F)F)c3)c2)cn1` , thanks.
1.0

Also `CCCCCc1ccc(S(=O)(=O)Nc2cc(-c3csc(NC(=O)CN4CCN(CCO)CC4)n3)ccc2OC)cc1` ?
1.0

And the next one, CCO/C=N/C1=C(C#N)C(c2ccc(F)cc2)c2sc3c(C)cccc3c2O1 (stereo not drawn) ?
1.0

# iterate: `CN1CCN(Cc2ccc(NC(=O)c3cncc(C#Cc4cnn5cccnc45)c3)cc2C(F)(F)F)CC1`
1.0
